B1: Formin-binding protein 4, residues 200 to 261; numbered along this chain, Q8N3X1 (parent)
chain: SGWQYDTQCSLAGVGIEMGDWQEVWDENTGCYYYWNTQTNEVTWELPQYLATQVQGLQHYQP

Variants of: B1
Assay: abundance fitness (aPCA) (normalised: wild type 0, dead -1); higher = more abundant; growth selection in yeast, the domain comes from the species named
Conditions: Homo sapiens
Note to self: class labels come from recorded abundance fitness, ranges listed here: category 1 = under -0.5, category 2 = from -0.5 up to -0.1, category 3 = -0.1 and over

Answered examples (4):
1) M18S    category 1
2) P62M    category 3
3) Q55F    category 3
4) E27N    category 2

Query: In plain terms, what class is `L46E` ?
Response: category 1

Query: In plain terms, what class is `A51M` ?
Response: category 2

Query: In plain terms, what class is `E23L` ?
Response: category 1

Query: In plain terms, what class is `W21N` ?
Response: category 1
